# Tested on: HCT116 p53-/- (colon)
# assay.procedure: Antiproliferative activity (MTT assay), HCT116 p53-/-
# Assay type: cell-based, human
# condition.summary: MTT, cells treated for 96 h, mean ± SD; read-out: Cell viability IC50, HCT116 p53-/- (colon)
parameter: pIC50
Conceptually, pIC50 converts a concentration in mol/L into minus its log10.

Request: What pIC50 value was documented for this molecule, N.N.[Cl][Pt][Cl] [Cisplatin, cisplatin] ?
Response: 5.12

---

# Tested on: MRC-5 pd30 (lung)
# assay.procedure: Antiproliferative activity (MTT assay), MRC-5 pd30
# Format: cell-based, human
# condition.summary: 72 h, mean ± SD, read-out: Cell viability IC50, MRC-5 pd30 (lung)
parameter: pIC50
Units for pIC50: none; it is -log10 of a concentration expressed in mol/L.

Request: Value lookup for pIC50; key = N.N.[Cl][Pt][Cl] [Cisplatin, cisplatin]
Response: 4.92
